details: in ethanol, 333.15 K
measuredEndpoint: solubility (mole fraction)

1. CC[C@H](CC[C@@H](C)[C@H]1CC[C@H]2[C@@H]3CC=C4C[C@@H](O)CC[C@]4(C)[C@H]3CC[C@]12C)C(C)C	0.00856

----------
details: in ethanol, 308.15 K
measuredEndpoint: solubility (mole fraction)

1) CC[C@H](CC[C@@H](C)[C@H]1CC[C@H]2[C@@H]3CC=C4C[C@@H](O)CC[C@]4(C)[C@H]3CC[C@]12C)C(C)C	0.00389

----------
details: in ethanol, 313.15 K
measuredEndpoint: solubility (mole fraction)

1) CC[C@H](CC[C@@H](C)[C@H]1CC[C@H]2[C@@H]3CC=C4C[C@@H](O)CC[C@]4(C)[C@H]3CC[C@]12C)C(C)C	0.0046

----------
conditions: in methanol, 308.15 K
measuredEndpoint: solubility (mole fraction)

1) CC[C@H](CC[C@@H](C)[C@H]1CC[C@H]2[C@@H]3CC=C4C[C@@H](O)CC[C@]4(C)[C@H]3CC[C@]12C)C(C)C	0.000427

----------
settings: in ethyl acetate, 313.15 K
measuredEndpoint: solubility (mole fraction)

1) CC[C@H](CC[C@@H](C)[C@H]1CC[C@H]2[C@@H]3CC=C4C[C@@H](O)CC[C@]4(C)[C@H]3CC[C@]12C)C(C)C	0.014

----------
settings: in methanol, 303.15 K
measuredEndpoint: solubility (mole fraction)

1. CC[C@H](CC[C@@H](C)[C@H]1CC[C@H]2[C@@H]3CC=C4C[C@@H](O)CC[C@]4(C)[C@H]3CC[C@]12C)C(C)C	0.000357
